# credit: patent US20080090805A1

test: Clearance study, liver microsomes (rats); conditions: rat, pH 7.4
compounds and their reported microsomal CLint at 1 μM
Value and unit, in that order.

Some compounds with recorded microsomal CLint at 1 μM:
O=C(NCc1ccco1)c1ccc2c(c1)N=C(c1ccc(Cl)s1)c1ccccc1S2 [drawing 1656] : 98 µL/min/mg
O=C(NCc1ccco1)c1ccc2c(c1)N=C(c1cccc(Cl)c1)c1ccccc1S2 [drawing 1684] : 93 µL/min/mg
O=C(NCc1ccccc1)c1ccc2c(c1)N=C(C1CCCCC1)c1ccccc1S2 [drawing 1779] : 351 µL/min/mg

Reported microsomal CLint at 1 μM of O=C(NCc1ccc(Cl)cc1Cl)c1ccc2c(c1)N=C(c1ccc(Cl)cc1)c1ccccc1S2 [drawing 1796] : 5 µL/min/mg

---

compounds and their reported Hypothermia 3 mg/kg
tested on: NSA mice; test: Hypothermia study (block of CP 55,940-induced hypothermia); format: in vivo; design: unit not given here; conditions: 3 mg/kg

Some compounds with recorded Hypothermia 3 mg/kg:
O=C(NN1CCCCCC1)c1ccc2c(c1)N=C(c1ccc(Cl)cc1F)c1ccccc1S2 [drawing 1563] : 54
O=C(NCc1cccc(Cl)c1)c1ccc2c(c1)N=C(c1ccc(F)cc1)c1ccccc1S2 [drawing 1618] : 50
Cc1ccsc1C1=Nc2cc(C(=O)NCCCC(F)(F)F)ccc2Sc2ccccc21 [drawing 1598] : 24
O=C(NCc1cccnc1)c1ccc2c(c1)N=C(c1ccc(Br)cc1)c1ccccc1S2 [drawing 1613] : 2
CCCCNC(=O)c1ccc2c(c1)N=C(c1ccc(Cl)cc1)c1ccc(F)cc1S2 [drawing 1562] : 53
O=C(NCc1cccs1)c1ccc2c(c1)N=C(c1cccc(F)c1)c1ccccc1S2 [drawing 1559] : 17
Cc1csc(CNC(=O)c2ccc3c(c2)N=C(c2cccc(C)n2)c2ccccc2S3)c1 [drawing 1616] : 54
O=C(NC1CCC(F)(F)CC1)c1ccc2c(c1)N=C(c1cccc(F)c1)c1ccccc1S2 [drawing 1608] : 46

Reported Hypothermia 3 mg/kg of O=C(NC1CCCCC1)c1ccc2c(c1)N=C(c1cccc(F)c1)c1ccccc1S2 [drawing 1632] : 44

Reported Hypothermia 3 mg/kg of O=C(NN1CCCCC1)c1ccc2c(c1)N=C(c1ccc(Cl)cn1)c1ccccc1S2 [drawing 1651] : 57

Reported Hypothermia 3 mg/kg of Cc1ccsc1C1=Nc2cc(C(=O)NCc3cccs3)ccc2Sc2ccccc21 [drawing 1642] : 25

Reported Hypothermia 3 mg/kg of C[C@@H]1CCC[C@H](C)N1NC(=O)c1ccc2c(c1)N=C(c1cccc(F)c1)c1ccccc1S2 [drawing 1635] : 17

Reported Hypothermia 3 mg/kg of CCCCNC(=O)c1ccc2c(c1)N=C(c1ccc(Cl)s1)c1cc(Cl)ccc1S2 [drawing 1577] : −9

Reported Hypothermia 3 mg/kg of O=C(NCCc1ccncc1)c1ccc2c(c1)N=C(c1ccc(Cl)s1)c1ccccc1S2 [drawing 1609] : 67

Reported Hypothermia 3 mg/kg of O=C(NCCc1cccnc1)c1ccc2c(c1)N=C(c1ccc(Cl)s1)c1ccccc1S2 [drawing 1585] : 76

Reported Hypothermia 3 mg/kg of O=C(NN1CCCCCC1)c1ccc2c(c1)N=C(c1cccc(Cl)c1)c1ccccc1S2 [drawing 1586] : 86

Reported Hypothermia 3 mg/kg of O=C(NN1CCCCCC1)c1ccc2c(c1)N=C(c1cccc(F)c1)c1ccccc1S2 [drawing 1590] : 85
